Test system: rainbow trout (Oncorhynchus mykiss)
test_details: Contribution of tissues to fish body burden
Type: in vivo
test_settings: fraction, Mean
Entries and their measured Contribution of Blood to the fish's body burden follow.
// print number alone

molecule	recorded_value
CCCCCCCCCCCCCN(C)C [T13, N,N-dimethyltridecylamine]	0.033
CCCCCCCCCN(C)C [T9, N,N-dimethylnonylamine]	0.057
CCCCCCCCCN [P9, Nonylamine]	0.016

*Q* Fill in Contribution of Blood to the fish's body burden for record CCCCCCCCCCCCN [P12, Dodecylamine]
*A* 0.014

*Q* Query Contribution of Blood to the fish's body burden for CCCCCCCCCCCCCCCCN [P16, hexadecylamine]
*A* 0.012

*Q* Output Contribution of Blood to the fish's body burden of CCCCCCCCCCCCCN [P13, tridecylamine]
*A* 0.014
